Entry source: patent US9029337B2

For each of the substances below, state its % Inhibition.
test system: human Factor 7 mRNA; test: Antisense inhibition of human Factor 7 mRNA in HepB3 cells, 50 nM antisense oligonucleotide, lipofectin; format: cell-based; settings: Table 1, 50 nM, lipofectin, approximately 24 hours, relative to untreated control cells
Strand notation (5' to 3'): a small letter for the sugar, then the base; units joined by * are phosphorothioate-linked, units joined directly phosphodiester-linked; [ ] holds rarer units or linkages, { } end groups; capitals alone tell only the bases. e = 2'-O-(2-methoxyethyl) (MOE); [5mC] = 5-methylcytosine; d = 2'-deoxy (DNA)

Problem: For the record 407642 (antisense e[5mC]*eA*eG*e[5mC]*eA*dG*d[5mC]*d[5mC]*dT*dG*dA*dG*dG*d[5mC]*d[5mC]*eA*eG*e[5mC]*eA*eG) [compound 407642] , what value of % Inhibition is listed for human Factor 7 mRNA?
Solution: 78%

Problem: For the record 407605 (antisense eT*eT*eG*eA*eG*dG*d[5mC]*dA*d[5mC]*dA*d[5mC]*dT*dG*dG*dT*e[5mC]*e[5mC]*e[5mC]*e[5mC]*eA) [compound 407605] , what value of % Inhibition is listed for human Factor 7 mRNA?
Solution: 58%

Problem: For the record 407934 (antisense e[5mC]*eT*eG*eA*eA*dG*dT*dG*dA*dA*dG*dA*dT*dG*dA*eT*eA*eA*eT*eG) [compound 407934] , what value of % Inhibition is listed for human Factor 7 mRNA?
Solution: 45%

Problem: For the record 407623 (antisense eT*e[5mC]*e[5mC]*eA*eT*dT*d[5mC]*dA*d[5mC]*d[5mC]*dA*dA*d[5mC]*dA*dA*e[5mC]*eA*eG*eG*eA) [compound 407623] , what value of % Inhibition is listed for human Factor 7 mRNA?
Solution: 69%

Problem: For the record 407943 (antisense eG*e[5mC]*eA*eG*eG*d[5mC]*dA*d[5mC]*d[5mC]*dA*d[5mC]*dA*dG*dG*dT*eG*eT*eG*e[5mC]*eG) [compound 407943] , what value of % Inhibition is listed for human Factor 7 mRNA?
Solution: 34%

Problem: For the record 407596 (antisense eG*eA*eG*eG*e[5mC]*d[5mC]*d[5mC]*d[5mC]*dG*dG*d[5mC]*dT*dT*d[5mC]*d[5mC]*eA*e[5mC]*eG*eG*e[5mC]) [compound 407596] , what value of % Inhibition is listed for human Factor 7 mRNA?
Solution: 61%

Problem: For the record 407666 (antisense eT*e[5mC]*e[5mC]*e[5mC]*e[5mC]*dA*dG*dG*dA*d[5mC]*dA*dT*d[5mC]*dT*dG*eG*eA*eA*e[5mC]*eT) [compound 407666] , what value of % Inhibition is listed for human Factor 7 mRNA?
Solution: 52%

Problem: For the record 407600 (antisense eT*eG*eA*eA*eG*d[5mC]*d[5mC]*d[5mC]*dA*dA*dG*d[5mC]*dA*dG*dA*eA*eG*eG*e[5mC]*eA) [compound 407600] , what value of % Inhibition is listed for human Factor 7 mRNA?
Solution: 61%

Problem: For the record 407932 (antisense eG*eA*eA*e[5mC]*e[5mC]*dA*dG*dA*dA*dA*dA*dG*dT*dG*dA*eG*eA*eG*e[5mC]*eT) [compound 407932] , what value of % Inhibition is listed for human Factor 7 mRNA?
Solution: 55%

Problem: For the record 407888 (antisense e[5mC]*eG*eA*eA*eG*dA*d[5mC]*dT*dG*d[5mC]*dA*dG*d[5mC]*d[5mC]*dA*eG*eG*e[5mC]*eA*eG) [compound 407888] , what value of % Inhibition is listed for human Factor 7 mRNA?
Solution: 34%

Problem: For the record 407621 (antisense eA*e[5mC]*eA*eA*e[5mC]*dA*dG*dG*dA*d[5mC]*d[5mC]*dT*dG*d[5mC]*d[5mC]*eA*eT*eG*eG*eA) [compound 407621] , what value of % Inhibition is listed for human Factor 7 mRNA?
Solution: 62%

Problem: For the record 407647 (antisense eG*e[5mC]*eA*eG*e[5mC]*d[5mC]*dG*dT*dT*dT*dA*dT*dT*dG*dT*eG*eA*eA*eG*e[5mC]) [compound 407647] , what value of % Inhibition is listed for human Factor 7 mRNA?
Solution: 83%

Problem: For the record 407895 (antisense e[5mC]*eA*e[5mC]*eA*e[5mC]*dA*dG*dA*dT*d[5mC]*dA*dG*d[5mC]*dT*dG*eG*eT*e[5mC]*eA*eT) [compound 407895] , what value of % Inhibition is listed for human Factor 7 mRNA?
Solution: 72%

Problem: For the record 407893 (antisense eT*e[5mC]*eG*eA*eA*dG*dG*d[5mC]*dA*dG*dG*dG*dA*dG*dG*e[5mC]*eA*eG*eA*eA) [compound 407893] , what value of % Inhibition is listed for human Factor 7 mRNA?
Solution: 33%

Problem: For the record 407645 (antisense eG*eA*eG*eA*eG*d[5mC]*dT*dA*dA*dA*d[5mC]*dA*dA*d[5mC]*d[5mC]*eG*e[5mC]*e[5mC]*eT*eT) [compound 407645] , what value of % Inhibition is listed for human Factor 7 mRNA?
Solution: 65%
